Biological target: HTRA2, O43464
Sequence (O43464 355-458): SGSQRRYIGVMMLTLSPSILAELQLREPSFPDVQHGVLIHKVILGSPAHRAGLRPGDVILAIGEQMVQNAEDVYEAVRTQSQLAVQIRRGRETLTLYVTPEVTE
Assay: holdup assay
Parameters: key: below the threshold = too weak to quantify, mostly under pKd 3.1 to 4
Conditions: plain residues with an end cap or a label only (N-terminal biotin on a linker: ado-ado)
assay readout: pKd

[[record]]
binder = "PALKNGQYWV [CSPG4, Q6UVK1]"
assay_result = 4.72

[[record]]
binder = "SSSVNVSSNL [CXCR1, P25024]"
assay_result = "below the threshold"

[[record]]
binder = "HLSTRQGTCV [ATRNL1, Q5VV63]"
assay_result = "below the threshold"

[[record]]
binder = "KLQNPNQSVV [TYRP1, P17643]"
assay_result = "below the threshold"

